# Test system: HeLa
# Assay Text: Cytotoxicity against human HeLa cells after 24 hrs by MTT assay
# Type: functional, cell-based
# Condition Details: Homo sapiens, HeLa, 24 h; read-out: IC50
Entries and their measured pIC50 follow.
Entry type: numeric. Quantity: pIC50, the -log10 of concentration in molar units.

{"columns": ["Compound", "pIC50"],
 "data": [
  ["NCCNC(=O)Cn1nc(N)c2c(C(F)(F)F)cc(-c3ccccc3)nc21", 4.35],
  ["Nc1nn(CC(=O)NCCO)c2nc(-c3ccccc3)cc(C(F)(F)F)c12", 4.16],
  ["Nc1nn(CC(=O)NC2CCCCC2)c2nc(-c3ccccc3)cc(C(F)(F)F)c12", 5.41],
  ["Nc1nn(CC(=O)N2CCCC2)c2nc(-c3ccccc3)cc(C(F)(F)F)c12", 4.79],
  ["CCNC(=O)Cn1nc(N)c2c(C(F)(F)F)cc(-c3ccccc3)nc21", 4.69],
  ["Nc1nn(CC(=O)NC(Cc2ccccc2)C(=O)O)c2nc(-c3ccccc3)cc(C(F)(F)F)c12 (centres undefined)", 4.50],
  ["Nc1nn(CC(=O)N2CCCCC2)c2nc(-c3ccccc3)cc(C(F)(F)F)c12", 5.54],
  ["CCCNC(=O)Cn1nc(N)c2c(C(F)(F)F)cc(-c3ccccc3)nc21", 4.80]
]}

Task item: For the compound shown here, "O=c1[nH]cc(F)c(=O)[nH]1" , give the reported pIC50.
Reply: 5.96

Task item: For the compound shown here, "Nc1nn(CC(=O)N2CCN(CCO)CC2)c2nc(-c3ccccc3)cc(C(F)(F)F)c12" , give the reported pIC50.
Reply: 5.54

====

Entries and their measured pIC50 follow.
# System: HeLa
# Assay Text: Cytotoxicity against human HeLa cells after 24 hrs by MTT assay
# Assay type: functional, cell-based
# Condition Details: Homo sapiens, HeLa, 24 h; read-out: IC50
Entry type: numeric. Quantity: pIC50, the -log10 of concentration in molar units.

{"columns": ["Molecule", "pIC50"],
 "data": [
  ["Nc1nn(CC(=O)N2CCOCC2)c2nc(-c3ccccc3)cc(C(F)(F)F)c12", 5.18],
  ["Nc1nn(CC(=O)NCc2ccccc2)c2nc(-c3ccccc3)cc(C(F)(F)F)c12", 4.77],
  ["CC(NC(=O)Cn1nc(N)c2c(C(F)(F)F)cc(-c3ccccc3)nc21)C(=O)O (centres undefined)", 4.70],
  ["NNC(=O)Cn1nc(N)c2c(C(F)(F)F)cc(-c3ccccc3)nc21", 4.32],
  ["CN1CCN(C(=O)Cn2nc(N)c3c(C(F)(F)F)cc(-c4ccccc4)nc32)CC1", 4.75]
]}

Task item: For the molecule shown here, "Nc1nn(CC(=O)NCc2ccco2)c2nc(-c3ccccc3)cc(C(F)(F)F)c12" , give the reported pIC50.
Reply: 5.15

Task item: For the molecule shown here, "Nc1nn(CC(=O)NCC(=O)O)c2nc(-c3ccccc3)cc(C(F)(F)F)c12" , give the reported pIC50.
Reply: 4.72

Task item: For the molecule shown here, "CNC(=O)Cn1nc(N)c2c(C(F)(F)F)cc(-c3ccccc3)nc21" , give the reported pIC50.
Reply: 4.91

Task item: For the molecule shown here, "Nc1nn(CC(=O)N2CCN(c3ccccc3)CC2)c2nc(-c3ccccc3)cc(C(F)(F)F)c12" , give the reported pIC50.
Reply: 4.70
